# Tested on: SK-LMS-1
# Experiment description: relative viability vs DMSO control (72 h) (fraction); higher = more viable cells
# Assay setup: 0.00152 µM
Reported relative viability values for the following compounds.
Kindly provide the number alone.

Below: 2 compounds and their reported relative viability.
[[record]]
smiles_entry = "CO[C@H]1C[C@@H]2CC[C@@H](C)[C@@](O)(O2)C(=O)C(=O)N2CCCC[C@H]2C(=O)O[C@H]([C@H](C)C[C@@H]2CC[C@@H](O)[C@H](OC)C2)CC(=O)[C@H](C)/C=C(\\C)[C@@H](O)[C@@H](OC)C(=O)[C@H](C)C[C@H](C)/C=C/C=C/C=C/1C"
observable = "relative viability"
experimental_result = 0.697

[[record]]
smiles_entry = "Cc1ccc(NC(=O)c2ccc(CN3CCN(C)CC3)cc2)cc1Nc1nccc(-c2cccnc2)n1"
observable = "relative viability"
experimental_result = 1.04


Prompt: Could you tell me which relative viability is on file for `N#CCC1(n2cc(-c3ncnc4[nH]ccc34)cn2)CN(C2CCN(C(=O)c3ccnc(C(F)(F)F)c3F)CC2)C1` ?
Response: 0.994

Prompt: Could you tell me which relative viability is on file for `CN1CCN(CCOc2cc(OC3CCOCC3)c3c(Nc4c(Cl)ccc5c4OCO5)ncnc3c2)CC1` ?
Response: 1.05

Prompt: Could you tell me which relative viability is on file for `N#Cc1ccnc(N2C(=O)CC[C@H]2C(=O)N(c2cncc(F)c2)[C@H](C(=O)NC2CC(F)(F)C2)c2ccccc2Cl)c1` ?
Response: 1.03

Prompt: Could you tell me which relative viability is on file for `NC(=O)c1cnc2[nH]ccc2c1N[C@@H]1[C@@H]2CC3C[C@H]1C[C@@](O)(C3)C2` ?
Response: 1.05
